- subject.of.test: T1, full length human LILRB2 stably expressed on HEK293 cells (human, UniProt Q8N423 22-597)
- T1 construct: whole, on cells; also called HEK293_LILRB2
- experimental.details: flow cytometry, HEK293 cells expressing full length human LILRB2
EC50 values for the binders below.
All answers are understood in µg/mL, so give the number only.

Example entries begin here.
binder	EC50, µg/mL
B2-17 (antibody, V domains shown, also called B2-17_HC; B2-17_LC) VH: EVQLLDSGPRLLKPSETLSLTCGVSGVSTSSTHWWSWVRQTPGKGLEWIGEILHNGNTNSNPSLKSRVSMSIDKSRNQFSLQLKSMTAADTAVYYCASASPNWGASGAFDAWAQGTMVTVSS VL: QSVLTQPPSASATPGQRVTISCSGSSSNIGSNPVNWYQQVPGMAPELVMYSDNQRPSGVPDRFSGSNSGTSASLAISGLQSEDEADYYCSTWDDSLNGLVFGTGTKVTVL	0.105
B2-15 (antibody, V domains shown, also called B-15; B2-15_HC) VH: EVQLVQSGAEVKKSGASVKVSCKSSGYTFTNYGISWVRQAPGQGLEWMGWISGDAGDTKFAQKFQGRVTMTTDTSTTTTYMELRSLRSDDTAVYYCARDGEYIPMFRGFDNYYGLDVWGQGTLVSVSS VL: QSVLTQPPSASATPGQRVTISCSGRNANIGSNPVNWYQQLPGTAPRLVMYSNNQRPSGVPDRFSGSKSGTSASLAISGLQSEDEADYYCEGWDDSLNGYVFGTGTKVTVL	0.101
B2-16 (antibody, V domains shown, also called B2-16_HC; B2-16_LC) VH: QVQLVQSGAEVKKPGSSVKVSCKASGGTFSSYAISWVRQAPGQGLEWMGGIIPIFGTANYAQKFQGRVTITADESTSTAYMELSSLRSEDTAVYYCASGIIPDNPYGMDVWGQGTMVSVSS VL: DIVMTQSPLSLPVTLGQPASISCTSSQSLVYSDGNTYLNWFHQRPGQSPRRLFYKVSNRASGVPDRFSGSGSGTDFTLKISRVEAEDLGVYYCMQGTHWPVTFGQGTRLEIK	0.277

Now take the following binder into account.
Asked: What value of EC50 has been recorded for this entry: B2-7 (antibody, V domains shown, also called B2-7_HC; B2-7_LC) VH: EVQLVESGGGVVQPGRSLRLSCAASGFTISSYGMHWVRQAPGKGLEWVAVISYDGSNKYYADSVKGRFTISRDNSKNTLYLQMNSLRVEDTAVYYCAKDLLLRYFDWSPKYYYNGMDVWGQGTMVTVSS VL: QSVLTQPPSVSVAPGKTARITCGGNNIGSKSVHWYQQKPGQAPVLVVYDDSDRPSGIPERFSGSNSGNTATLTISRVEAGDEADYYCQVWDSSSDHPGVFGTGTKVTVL
Given back: 0.212
